Test: Antagonist activity at CRTh2 receptor in human eosinophil assessed as inhibition of PGD2-induced cell shape change
Reported pIC50 values for the following molecules.
Scale for pIC50: -log10 of concentration given in mol/L; no unit attached.

Please review the entries below; each comes with its answer.
| smiles-code | pIC50 |
| --- | --- |
| CCN(Cc1cc(C(F)(F)F)ccc1-c1cc(CC(=O)O)cc2cnn(C)c12)C(=O)C1CC1 | 7.24 |
| CCN(Cc1cc(C(F)(F)F)ccc1-c1cc(CC(=O)O)c2ccncn12)C(=O)C1CC1 | 7.72 |
| CCN(Cc1cc(C(F)(F)F)ccc1-c1nc(CC(=O)O)c2ccccn12)C(=O)C1CC1 | 7.03 |
| CCN(Cc1cc(C(F)(F)F)ccc1-c1cn(CC(=O)O)c2cccnc12)C(=O)C1CC1 | 7.85 |
| CCN(Cc1cc(C(F)(F)F)ccc1-c1cc(CC(=O)O)ccc1OC)C(=O)C1CC1 | 7.89 |

Problem: Can you share its pIC50? I mean this molecule: `CCN(Cc1cc(C(F)(F)F)ccc1-c1cn(CC(=O)O)c2ccncc12)C(=O)C1CC1`
Solution: 8.10

Problem: Can you share its pIC50? I mean this molecule: `CCN(Cc1cc(C(F)(F)F)ccc1-n1cc(CC(=O)O)c2cccnc21)C(=O)C1CC1`
Solution: 7.70

Problem: Can you share its pIC50? I mean this molecule: `CCN(Cc1cc(C(F)(F)F)ccc1-c1cn(CC(=O)O)c2ccccc12)C(=O)C1CC1`
Solution: 7.20

Problem: Can you share its pIC50? I mean this molecule: `CCN(Cc1cc(C(F)(F)F)ccc1-c1cc(CC(=O)O)cc2cn(C)nc12)C(=O)C1CC1`
Solution: 7.37

Where do the numbers come from? From BindingDB's records for doi:10.1016/j.bmcl.2014.09.005.
